The measurements presented in this section are drawn from paper PMC6443376.

Test target: Cdk2/Cyclin A (Homo sapiens)
Procedure text: CDK2 inhibition assay
Property: IC50 (nM)
Field: numeric (nM). Do not append units.

Data request: GET /values?readout=IC50&item= "O=C(NC1CCN(C(=O)c2c(Cl)cccc2Cl)CC1)c1n[nH]cc1NC(=O)c1c(Cl)cccc1Cl"
Data returned: 760
